IC90 for assorted compounds
System: PANC-1 (pancreatic cancer)
PROCEDURE SUMMARY: Solid tumor cell growth inhibition, MTT, 72 h (Example 7)
Assay type: cell-based, human
TEST CONTEXT: Homo sapiens; 72 h, MTT, PANC-1
Value expressed in µg/mL; do not type the unit.

Examples with their reported IC90 follow.
COc1ccc2cc1Oc1ccc(cc1)C[C@H]1c3cc(c(OC)cc3CCN1C)Oc1c(OC)c(OC)c(COC(C)=O)c3c1[C@H](C2)N(C)CC3; 16
COc1ccc2cc1Oc1ccc(cc1)C[C@H]1c3cc(c(OC)cc3CCN1C)Oc1c(OC)c(OC)c(COCCOc3ccccc3)c3c1[C@H](C2)N(C)CC3; 4.04

Continue with the next compound.
Measured IC90 of COc1ccc2cc1Oc1ccc(cc1)C[C@H]1c3cc(c(OC)cc3CCN1C)Oc1c(OC)c(OC)c(CN3CCN(C)CC3)c3c1[C@H](C2)N(C)CC3 : 9.54

====

Tested on: CaES-17 (esophageal cancer cell)
PROCEDURE SUMMARY: Solid tumor cell growth inhibition, MTT, 72 h (Example 7)
Assay type: cell-based, human
TEST CONTEXT: Homo sapiens, CaEs17; 72 h, MTT, CAES-17
PROPERTY MEASURED: log10 IC50 (log10 of the value in µg/mL)
Response schema: value (number) is log10 of IC50 in units of µg/mL.

Examples with their reported log10 IC50 follow.
CCOCc1c2c3c(c(OC)c1OC)Oc1cc4c(cc1OC)CCN(C)[C@H]4Cc1ccc(cc1)Oc1cc(ccc1OC)C[C@@H]3N(C)CC2; 0.70
COc1ccc2cc1Oc1ccc(cc1)C[C@H]1c3cc(c(OC)cc3CCN1C)Oc1c(OC)c(OC)c(CN3CCC(O)C3)c3c1[C@H](C2)N(C)CC3 (stereo partly drawn); 0.20
COc1ccc2cc1Oc1ccc(cc1)C[C@H]1c3cc(c(OC)cc3CCN1C)Oc1c(OC)c(OC)c(CN3CCC(N(C)C)CC3)c3c1[C@H](C2)N(C)CC3; -0.04

Measured log10 IC50 of COc1ccc2cc1Oc1ccc(cc1)C[C@H]1c3cc(c(OC)cc3CCN1C)Oc1c(OC)c(OC)c(CN(C)C)c3c1[C@H](C2)N(C)CC3 : 0.68

Measured log10 IC50 of COc1ccc2cc1Oc1ccc(cc1)C[C@H]1c3cc(c(OC)cc3CCN1C)Oc1c(OC)c(OC)c(COCCn3ccnc3)c3c1[C@H](C2)N(C)CC3 : 0.23

Measured log10 IC50 of COc1ccc2cc1Oc1ccc(cc1)C[C@H]1c3cc(c(OC)cc3CCN1C)Oc1c(OC)c(OC)c(COC(C)=O)c3c1[C@H](C2)N(C)CC3 : 0.99

====

Test system: A549 (human lung cancer)
PROCEDURE SUMMARY: Solid tumor cell growth inhibition, MTT, 72 h (Example 7)
Format: cell-based
TEST CONTEXT: Homo sapiens; 72 h, MTT, A549
IC50 for assorted compounds
Value expressed in µg/mL; do not type the unit.

COc1ccc2cc1Oc1ccc(cc1)C[C@H]1c3cc(c(OC)cc3CCN1C)Oc1c(OC)c(OC)c(CN3CCCC(C)C3)c3c1[C@H](C2)N(C)CC3 (stereo partly shown) [BS-TE-346]; 2.5
COc1ccc2cc1Oc1ccc(cc1)C[C@H]1c3cc(c(OC)cc3CCN1C)Oc1c(OC)c(OC)c(CN3CCN(C)CC3)c3c1[C@H](C2)N(C)CC3 [BS-TE-360]; 1.7
COc1ccc2cc1Oc1ccc(cc1)C[C@H]1c3cc(c(OC)cc3CCN1C)Oc1c(OC)c(OC)c(CNC(C)C)c3c1[C@H](C2)N(C)CC3 [BS-TE-311]; 1.89
COc1ccc2cc1Oc1ccc(cc1)C[C@H]1c3cc(c(OC)cc3CCN1C)Oc1c(OC)c(OC)c(CSc3ccccc3)c3c1[C@H](C2)N(C)CC3 [BS-TE-421]; 3.4
CNCc1c2c3c(c(OC)c1OC)Oc1cc4c(cc1OC)CCN(C)[C@H]4Cc1ccc(cc1)Oc1cc(ccc1OC)C[C@@H]3N(C)CC2 [BS-TE-326]; 1.8
COc1ccc2cc1Oc1ccc(cc1)C[C@H]1c3cc(c(OC)cc3CCN1C)Oc1c(OC)c(OC)c(CNCc3cccs3)c3c1[C@H](C2)N(C)CC3 [BS-TE-359]; 3.3
COc1ccc2cc1Oc1ccc(cc1)C[C@H]1c3cc(c(OC)cc3CCN1C)Oc1c(OC)c(OC)c(CN3CCC(O)CC3)c3c1[C@H](C2)N(C)CC3 [BS-TE-308]; 2.79
COCCCNCc1c2c3c(c(OC)c1OC)Oc1cc4c(cc1OC)CCN(C)[C@H]4Cc1ccc(cc1)Oc1cc(ccc1OC)C[C@@H]3N(C)CC2 [BS-TE-340]; 2.36

Continue with the next compound.
Measured IC50 of COc1ccc2cc1Oc1ccc(cc1)C[C@H]1c3cc(c(OC)cc3CCN1C)Oc1c(OC)c(OC)c(CN3CCOCC3)c3c1[C@H](C2)N(C)CC3 [BS-TE-307] : 2.3

FYI, the data here is from patent US9133207B2.
